target system: human CYP11B2 (Homo sapiens)
Sequence (P19099 25-503): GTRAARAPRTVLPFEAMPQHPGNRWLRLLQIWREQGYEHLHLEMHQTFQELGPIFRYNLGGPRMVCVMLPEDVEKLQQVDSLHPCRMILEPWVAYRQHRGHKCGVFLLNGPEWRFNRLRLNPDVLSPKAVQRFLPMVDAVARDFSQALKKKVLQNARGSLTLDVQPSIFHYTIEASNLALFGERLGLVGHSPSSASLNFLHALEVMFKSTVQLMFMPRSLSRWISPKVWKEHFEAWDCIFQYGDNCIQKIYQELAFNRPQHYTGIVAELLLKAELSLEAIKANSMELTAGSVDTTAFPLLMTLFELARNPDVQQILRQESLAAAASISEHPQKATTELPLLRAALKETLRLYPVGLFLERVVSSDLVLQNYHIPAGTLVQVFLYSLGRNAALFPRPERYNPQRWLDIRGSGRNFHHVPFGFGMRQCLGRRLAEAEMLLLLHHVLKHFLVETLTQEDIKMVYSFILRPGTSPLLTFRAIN
assay notes: G-402 cellular enzyme assay, human CYP11B2 (aldosterone release, HTRF)
applied conditions: G-402 cells expressing human CYP11B2; 1 μM Deoxycorticosterone
Description: Herein we identified the use of the G-402 cell line as a host cell to ectopically express (transiently or stably) enzymes of the CYP11 family. […] Importantly the identified cell line G-402 expresses co-factors (adrenodoxin and adrenodoxin reductase) important for the activity of the CYP11 family and no relevant enzyme activity of the CYP11 family (in comparison to H295R cells) was detected in these cells. […]
parameter: EC50 (nM)
A number alone suffices; assume nM.

| structure string | parameter | u | result |
| --- | --- | --- | --- |
| COc1ncc(C(=O)NCc2cncc(-c3ccc4c(c3)CCC(=O)N4C)c2)cn1 | EC50 | nM | 8 |

Problem: // fetch human CYP11B2 (Homo sapiens) EC50 for CN1C(=O)CCc2cc(-c3cncc(CNC(=O)c4ncccc4Cl)c3)ccc21
Solution: 4

Problem: Moving on to CN1C(=O)CCc2cc(-c3cncc(CN4CCC[C@H]4COCC(F)(F)F)c3)ccc21
Solution: 32

Problem: Same lookup for CN1C(=O)CCc2cc(-c3cncc(CN4CCCCS4(=O)=O)c3)ccc21 , please.
Solution: 5

----------
target system: human CYP11B1 (Homo sapiens, UniProt P15538)
Sequence (P15538 25-503): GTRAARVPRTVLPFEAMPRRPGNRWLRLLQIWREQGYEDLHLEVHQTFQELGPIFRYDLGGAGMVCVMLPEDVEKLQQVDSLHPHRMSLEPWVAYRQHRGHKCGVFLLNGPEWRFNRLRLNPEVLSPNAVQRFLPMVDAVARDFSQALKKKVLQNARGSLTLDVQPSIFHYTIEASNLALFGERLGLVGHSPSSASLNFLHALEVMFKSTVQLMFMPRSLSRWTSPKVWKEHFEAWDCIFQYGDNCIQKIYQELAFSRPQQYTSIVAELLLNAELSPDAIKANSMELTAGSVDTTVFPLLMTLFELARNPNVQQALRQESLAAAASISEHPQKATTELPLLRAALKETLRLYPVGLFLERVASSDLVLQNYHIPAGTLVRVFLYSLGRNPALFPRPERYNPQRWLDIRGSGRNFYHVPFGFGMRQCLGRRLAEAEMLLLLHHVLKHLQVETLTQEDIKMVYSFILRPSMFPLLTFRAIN
assay notes: G-402 cellular enzyme assay, human CYP11B1 (cortisol release, HTRF)
applied conditions: G-402 cells expressing human CYP11B1; 1 μM Deoxycortisol
parameter: pEC50
pEC50 is a log-scale quantity: -log10 of the concentration expressed in molar.

Use these answered entries as a reference point.
| structure string | target system | pEC50 |
| --- | --- | --- |
| CN(Cc1cncc(-c2ccc3c(c2)CCC(=O)N3C)c1)C(=O)c1ncccc1Cl | human CYP11B1 (Homo sapiens, UniProt P15538) | 6.29 |
| CCS(=O)(=O)NC(C)(C)c1cncc(-c2ccc3c(c2)CCC(=O)N3C)c1 | human CYP11B1 (Homo sapiens, UniProt P15538) | 6.57 |
| CN1C(=O)CCc2cc(-c3cncc(CNS(=O)(=O)c4cccc(Cl)c4)c3)ccc21 | human CYP11B1 (Homo sapiens, UniProt P15538) | 5.32 |

Now for a further compound.
Problem: Quick one: pEC50 of CN1C(=O)CCc2cc(-c3cncc(CNC(=O)CC(F)(F)F)c3)ccc21 ?
Solution: 5.94
